B1: GFP aptamer (parent)
chain: GCUUCUGGACUGCGAUGGGAGCACGAAACGUCGUGGCGCAAUUGGGUGGGGAAAGUCCUUAAAAGAGGGCCACCACAGAAGC

Variants of: B1
Assay: HiTS-RAP
Settings: with EGFP
Hi all, reminder that labels come from Kd, split as low class (below 5 nM), middle class (5 nM to below 9 nM), high class (9 nM or more)

ORDERED_RESIDUES: GCUUCUGGACUGCGAUGGGAGCACGAAACGUCGUGGCGCAAUUGGGUGGGGAAAGUCCUUAAAAGAGGGCCACCAAAGAAGC [C76A]
ASSIGNED_CATEGORY: high class

ORDERED_RESIDUES: GCUUCUGGACUGCGAUGGGAGCACGAAACGUCGUGGCGCAAUUGGGUGGGGAAAGUCCUUAAAAGAGGGCCACCACAGAUGC [A80U]
ASSIGNED_CATEGORY: middle class

ORDERED_RESIDUES: GCUUCUGGACUGCGAUGGGAGCACGAAACGUCGUUGCGCAAUUGGGUGGGGAAAGUCCUUAAAAGAGGGCCACCACAGAAGC [G35U]
ASSIGNED_CATEGORY: high class

ORDERED_RESIDUES: GCUUCUGGAUUGCGAUGGGAGCACGAAGCGUCGUGGCGCAAUUGGGUGGGGAAAGUCCUUAAAAGAGGGCCACCACAGAAGC [C10U A28G]
ASSIGNED_CATEGORY: low class

ORDERED_RESIDUES: GCUUCUGGACUGCGAGGGGAGCACGAAACGUCGUGGCGCAAUUGGGUGGGGAAAGUCCUUAAAAGAGGGCCACCACAGAAGC [U16G]
ASSIGNED_CATEGORY: low class

ORDERED_RESIDUES: GCUUCUGGACUGCGGUGGGAGCACGAAGCGUCGUGGCGCAAUUGGGUGGGGAAAGUCCUUAAAAGAGGGCCACCACAGAAGC [A15G A28G]
ASSIGNED_CATEGORY: low class

ORDERED_RESIDUES: GCUUCUGGACUGCGAUGGGAGCACGAGACGUCGUGGCGCAAUUGGGUGGGGAAAGUCCUUAAAAGAGGGCCAUCACAGAAGC [A27G C73U]
ASSIGNED_CATEGORY: high class

ORDERED_RESIDUES: GCUUCUGGACUGCGAUGGGAGCACGAAACGUCGUGGCGCAACUGGGUGGGGAAAGUCCUUAAAAGAGGGCCACCACAGAAGC [U42C]
ASSIGNED_CATEGORY: middle class

ORDERED_RESIDUES: GCUUCUGGACUGCGAUGGGGGCACAAAACGUCGUGGCGCAAUUGGGUGGGGAAAGUCCUUAAAAGAGGGCCACCACAGAAGC [A20G G25A]
ASSIGNED_CATEGORY: high class

ORDERED_RESIDUES: GCUUCUGGACUGCGAUGGGAGCACGGAACGUCGUGGCGCAAUUGGGUGGGGAAAGUCCUUAAAAGAGGGCCACCACAGAAGC [A26G]
ASSIGNED_CATEGORY: low class

ORDERED_RESIDUES: GCUUCUGGACUGCGAUGGGAGCACGAAACGUCGUGGCGCAACUGGGUGGGGAAAGUCCUUAAAAGAGGGCCACCACGGAAGC [U42C A77G]
ASSIGNED_CATEGORY: high class

ORDERED_RESIDUES: GCUUCUGGACUGCGAUGGGAGCACGAAACGUCGUGGCGCAAUUGGGUGGGGAAAGUCCUUAAAAGAGGGCCACCACAGAAUC [G81U]
ASSIGNED_CATEGORY: low class

ORDERED_RESIDUES: GCUUCUGGACCGCGAUGGGAGCACGAAACGUCGUGGCGCAAUUGGGUGGGGAAAGUCCUUAAAAGAGGGCCACCACAGAAGC [U11C]
ASSIGNED_CATEGORY: high class

ORDERED_RESIDUES: GCUUCUGGACUGCGAUGGGAGCACUAAACGUCGUGGCGCAAUUGGGUGGGGAAAGUCCUUAAAAGAGGGCCACCACAGAAGC [G25U]
ASSIGNED_CATEGORY: low class

ORDERED_RESIDUES: GCUUCUGGACUGCGAUGGGAGCACGAAACGUCGUGGCGCAAUUGGGUGGGGAAAGUCCUUAAAAGAGGGCCACCACAGCAGC [A79C]
ASSIGNED_CATEGORY: high class

ORDERED_RESIDUES: GCUUCUGUACUGCGAUGGGAGCACGAAACGUCGUGGCGCAAUUGGGUGGGGAAAGUCCUUAAAAGAGGGCCACCACAGAAGC [G8U]
ASSIGNED_CATEGORY: middle class

ORDERED_RESIDUES: GCUUCUGGACUGCGAUGGGAGCACGAAACGUCGUGGCGCAAUUGGGUGGGGAUAGUCCUUAAAAGAGGGCCACCACAGAAGC [A53U]
ASSIGNED_CATEGORY: high class

ORDERED_RESIDUES: GCUUCUGGACUGCGAUGGGAGCACGAAGCGUCGUGGUGCAAUUGGGUGGGGAAAGUCCUUAAAAGAGGGCCACCACAGAAGC [A28G C37U]
ASSIGNED_CATEGORY: middle class

ORDERED_RESIDUES: GCUUCUGGAUUGCGAUGGGAGCACGAAACGUCGUGGCGCAAUUGGGUGGGGAAAGUCCUUAAAAGAGGGCCACCACGGAAGC [C10U A77G]
ASSIGNED_CATEGORY: high class

ORDERED_RESIDUES: GCUUCUGGAGUGCGAUGGGAGCACGAAACGUCGUGGCGCAAUUGGGUGGGGAAAGUCCUUAAAAGAGGGCCACCACAGAAGC [C10G]
ASSIGNED_CATEGORY: low class

ORDERED_RESIDUES: GCUUCUAGACUGCGAUGGGAGCACGAAACGUCGUGGCGCAAUUGGGUGGGGAAAGUCCUUAAAAGAGGGCCACCACAGAAGC [G7A]
ASSIGNED_CATEGORY: high class

ORDERED_RESIDUES: GCUUGUGGACUGCGAUGGGAGCACGAAACGUCGUGGCGCAAUUGGGUGGGGAAAGUCCUUAAAAGAGGGCCACCACAGAAGC [C5G]
ASSIGNED_CATEGORY: middle class

ORDERED_RESIDUES: GCUUCUGGACUGCGAUGGGAGUACGAAACGUCGUGGCGCAAUCGGGUGGGGAAAGUCCUUAAAAGAGGGCCACCACAGAAGC [C22U U43C]
ASSIGNED_CATEGORY: low class

ORDERED_RESIDUES: GCUUCUGGACUGCGAUGGGAGCACGAGACGCCGUGGCGCAAUUGGGUGGGGAAAGUCCUUAAAAGAGGGCCACCACAGAAGC [A27G U31C]
ASSIGNED_CATEGORY: low class

ORDERED_RESIDUES: GCUUCUGGACUGCGAUGGGAGCACGAAACGUCGUGGCGCCAUUGGGUGGGGAAAGUCCUUAAAAGAGGGCCACCACAGAAGC [A40C]
ASSIGNED_CATEGORY: high class

ORDERED_RESIDUES: GCUUCUGGACUGCGAUGGGAGCAUGAAACGUCGUGGCGCAAUUGGGUGGGGAAAGUCCUUAAAAGAGAGCCACCACAGAAGC [C24U G68A]
ASSIGNED_CATEGORY: high class

ORDERED_RESIDUES: GCUUCUGGACUGCGAUGGGAGCACGAAGCGUCGUGGCGCAAUUGGGUGGGGAAAGUCUUUAAAAGAGGGCCACCACAGAAGC [A28G C58U]
ASSIGNED_CATEGORY: low class

ORDERED_RESIDUES: GCUUCUGGACUGCGAUGGGGGCACGAAACGUCAUGGCGCAAUUGGGUGGGGAAAGUCCUUAAAAGAGGGCCACCACAGAAGC [A20G G33A]
ASSIGNED_CATEGORY: high class

ORDERED_RESIDUES: GCUUCUGAACUGCGAUGGGAGCACGAAACGUCGUGGCGCAAUUGGGUGGGGAAAGUCCUUAAAAGAGGGCCACCACAGAAGC [G8A]
ASSIGNED_CATEGORY: high class

ORDERED_RESIDUES: GCUUCUGGACUGCGAUGGGGGCACGAAACGCCGUGGCGCAAUUGGGUGGGGAAAGUCCUUAAAAGAGGGCCACCACAGAAGC [A20G U31C]
ASSIGNED_CATEGORY: high class

ORDERED_RESIDUES: GCUUCUGGACUGCGAUGGGAGCACAAAGCGUCGUGGCGCAAUUGGGUGGGGAAAGUCCUUAAAAGAGGGCCACCACAGAAGC [G25A A28G]
ASSIGNED_CATEGORY: middle class

ORDERED_RESIDUES: GCUUCUGGACUGCGAUGGGAGCAUGAGACGUCGUGGCGCAAUUGGGUGGGGAAAGUCCUUAAAAGAGGGCCACCACAGAAGC [C24U A27G]
ASSIGNED_CATEGORY: middle class

ORDERED_RESIDUES: GCUUCUGGACUGCGAUGGGAGUACGAGACGUCGUGGCGCAAUUGGGUGGGGAAAGUCCUUAAAAGAGGGCCACCACAGAAGC [C22U A27G]
ASSIGNED_CATEGORY: high class

ORDERED_RESIDUES: GCUUCUGGACUGCGAUGGGAGCACGAAACGUCGUGGCGCAAUUGGGUGGGGAAAGUCCUUGAAAGAGGGCCACCACAGAAGC [A61G]
ASSIGNED_CATEGORY: low class

ORDERED_RESIDUES: GCUUCUGGACUGCGAUGGGUGCACGAAACGUCGUGGCGCAAUUGGGUGGGGAAAGUCCUUAAAAGAGGGCCACCACAGAAGC [A20U]
ASSIGNED_CATEGORY: high class

ORDERED_RESIDUES: GCUUCUGGACUGCGAUGGGAGCACGAAACGUCGUGGCGCAAUUGGGUGGGGAAAGUCCUUAAAAGAGGGCCGCCACAGAAGC [A72G]
ASSIGNED_CATEGORY: low class

ORDERED_RESIDUES: GCUUCUGGACUGCGAUUGGAGCACGAAACGUCGUGGCGCAAUUGGGUGGGGAAAGUCCUUAAAAGAGGGCCACCACAGAAGC [G17U]
ASSIGNED_CATEGORY: middle class

ORDERED_RESIDUES: GCUUCUGGACUGCGAUGGGAGCACGAAACGUAGUGGCGCAAUUGGGUGGGGAAAGUCCUUAAAAGAGGGCCACCACAGAAGC [C32A]
ASSIGNED_CATEGORY: low class

ORDERED_RESIDUES: GCUUCUGGACUGCGAUGGGGGCACGAAACGUCGUGGCGCAAUUGGGUGGGGAAAGUCCUAAAAAGAGGGCCACCACAGAAGC [A20G U60A]
ASSIGNED_CATEGORY: middle class

ORDERED_RESIDUES: GCUUCUGGACUGCGAUGGGAGCACGAAACGCCGUGGCGCAAUCGGGUGGGGAAAGUCCUUAAAAGAGGGCCACCACAGAAGC [U31C U43C]
ASSIGNED_CATEGORY: low class

ORDERED_RESIDUES: GCUGCUGGACUGCGAUGGGAGCACGAAACGUCGUGGCGCAAUUGGGUGGGGAAAGUCCUUAAAAGAGGGCCACCACAGAAGC [U4G]
ASSIGNED_CATEGORY: low class

ORDERED_RESIDUES: GCUUCUGGAUUGCGAUGGGAGCACGAAACGUCAUGGCGCAAUUGGGUGGGGAAAGUCCUUAAAAGAGGGCCACCACAGAAGC [C10U G33A]
ASSIGNED_CATEGORY: high class

ORDERED_RESIDUES: GCUUCUGGACUGGGAUGGGAGCACGAAACGUCGUGGCGCAAUUGGGUGGGGAAAGUCCUUAAAAGAGGGCCACCACAGAAGC [C13G]
ASSIGNED_CATEGORY: middle class

ORDERED_RESIDUES: GCUUCUGGACUGCGAUGGGAGCACGAAACGUCGUGGCGCAAUUGGGUGGGGAAAGUCCUUAAAAGAGGGCCACCACAGAGGC [A80G]
ASSIGNED_CATEGORY: low class

ORDERED_RESIDUES: GCUUCUGGACUGCGAUGGGAGCACGAAACGUCGUGGCGCAAUUGGGUGGGGAAAGUGCUUAAAAGAGGGCCACCACAGAAGC [C57G]
ASSIGNED_CATEGORY: high class

ORDERED_RESIDUES: GCUUCUGGACUGCGAUGGGAGCACGAAACGUCGUGGCGCAAUUGGGUGGGGAAAGUCCUUAAAAGAAGGCCACCACAGAAGC [G67A]
ASSIGNED_CATEGORY: high class

ORDERED_RESIDUES: GCUUCUGGACUGCGAUGGGAGCACGAAACGUCGUGGCGCAAUUGGGUGGGGUAAGUCCUUAAAAGAGGGCCACCACAGAAGC [A52U]
ASSIGNED_CATEGORY: high class

ORDERED_RESIDUES: GCUUCUGGACUGCGAUGGGAGCACGAAACGUCGUGGCGCAAUUGGGAGGGGAAAGUCCUUAAAAGAGGGCCACCACAGAAGC [U47A]
ASSIGNED_CATEGORY: middle class

ORDERED_RESIDUES: GCUUCUGGACUGCGAUGGGAGCACAAAACGUCGUGGCGCAAUUGGGUGGGGAAAGUCUUUAAAAGAGGGCCACCACAGAAGC [G25A C58U]
ASSIGNED_CATEGORY: low class

Taken from the RNAGym collection of RNA variant scans (doi:10.1038/nmeth.2970).
